Quick reference for pEC50 among some compounds
# systemName: human mGlu5 receptor (Homo sapiens (Human), UniProt P41594)
# testMethodNotes: Calcium fluorescence measurements, potentiation of mGlu5 activation (positive allosteric modulator activity)
# experimentalSetup: EC20 of the agonist (quisqualate or glutamate), compounds applied 10 minutes before agonist
# Description: Cell lines stably transfected were generated using inducible expression vectors encoding human mGlu5 receptor using the Tetracycline-Regulated Expression system (T-REx™ system, Invitrogen, Life Technologies). Human mGluR5 open reading frame (ORF), comprehensive of the stop codon, were cloned into the pcDNA4/TO/myc-His™ A vector, carrying the TetO2. The insertion site was HindIII-PstI for mGluR5 receptors. […]
In textbook form, pEC50 equals minus log to base ten of the concentration in mol/L.

>>> reading("COc1cccc(C(=O)N2CC/C(=C\\C#Cc3cccc(C#N)c3)C(C)(C)C2)c1")
7.06
>>> reading("CC1(C)CN(C(=O)c2cccc(O)c2)CC/C1=C\\C#Cc1cccc(Cl)c1")
6.94
>>> reading("CC1(C)CN(C(=O)c2cccc(Cl)c2)CC/C1=C\\C#Cc1cccc(CO)c1")
7.30
>>> reading("O=C(c1cccc(Cl)c1)N1CC/C(=C\\C#Cc2cccc(Cl)c2)C(F)(F)C1")
7.05
>>> reading("Cc1cc(C(=O)N2CC/C(=C\\C#Cc3cc(F)cc(C#N)c3)C(C)(C)C2)c(C)o1")
6.54

INPUT: Give the measured pEC50 of `CC1(C)CN(C(=O)c2cccc(Cl)c2)CC/C1=C\c1cc(-c2cccc(Cl)c2)[nH]n1` .
OUTPUT: 6.92

INPUT: Give the measured pEC50 of `CCn1nc(C)c(C(=O)N2CC/C(=C\C#Cc3cccc(Cl)c3)C(C)(C)C2)n1` .
OUTPUT: 7.64

INPUT: Give the measured pEC50 of `CC1(C)CN(C(=O)c2cccc(Cl)c2)CC/C1=C\C#Cc1cccc(Cl)c1` .
OUTPUT: 6.97

* * *

# systemName: human mGluR5 receptor (Homo sapiens (Human), UniProt P41594)
# Sequence (P41594 21-1212): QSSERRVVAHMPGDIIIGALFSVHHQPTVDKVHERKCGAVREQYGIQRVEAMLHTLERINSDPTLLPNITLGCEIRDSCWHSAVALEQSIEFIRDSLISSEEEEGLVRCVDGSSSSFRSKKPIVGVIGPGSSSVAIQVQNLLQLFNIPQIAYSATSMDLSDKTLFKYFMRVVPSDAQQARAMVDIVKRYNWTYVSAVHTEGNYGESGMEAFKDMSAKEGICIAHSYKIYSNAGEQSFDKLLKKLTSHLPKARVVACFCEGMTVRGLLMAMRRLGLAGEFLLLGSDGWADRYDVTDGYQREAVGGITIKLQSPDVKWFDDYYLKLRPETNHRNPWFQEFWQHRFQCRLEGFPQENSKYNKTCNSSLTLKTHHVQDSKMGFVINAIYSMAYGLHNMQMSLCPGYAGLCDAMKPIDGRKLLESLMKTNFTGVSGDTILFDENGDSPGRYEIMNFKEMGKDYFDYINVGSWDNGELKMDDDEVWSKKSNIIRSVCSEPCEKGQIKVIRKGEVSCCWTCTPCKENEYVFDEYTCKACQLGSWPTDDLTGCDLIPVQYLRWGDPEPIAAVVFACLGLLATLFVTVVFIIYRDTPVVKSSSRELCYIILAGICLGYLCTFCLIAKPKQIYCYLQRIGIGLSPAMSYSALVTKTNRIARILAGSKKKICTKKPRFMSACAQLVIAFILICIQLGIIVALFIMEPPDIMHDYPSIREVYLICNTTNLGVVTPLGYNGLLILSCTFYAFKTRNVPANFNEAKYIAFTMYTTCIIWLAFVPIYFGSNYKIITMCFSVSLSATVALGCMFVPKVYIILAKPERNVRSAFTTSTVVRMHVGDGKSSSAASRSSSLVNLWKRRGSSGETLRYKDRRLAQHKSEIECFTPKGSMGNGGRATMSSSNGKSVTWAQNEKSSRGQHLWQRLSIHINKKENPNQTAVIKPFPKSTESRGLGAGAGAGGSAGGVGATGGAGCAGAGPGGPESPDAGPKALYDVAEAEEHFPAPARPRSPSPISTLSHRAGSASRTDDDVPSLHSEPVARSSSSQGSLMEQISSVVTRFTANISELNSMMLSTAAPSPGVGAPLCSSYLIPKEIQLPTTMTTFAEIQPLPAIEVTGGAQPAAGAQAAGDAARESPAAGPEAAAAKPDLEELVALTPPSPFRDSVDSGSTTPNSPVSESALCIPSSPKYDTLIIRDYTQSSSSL
pKi: −log10 of the molar value.
Would you mind labelling by pKi? At or over 8 is Satisfied, under is Not satisfied.

>>> group("COC(=O)N1CC/C(=C\\C#Cc2cccc(Cl)c2)C(C)(C)C1")
"Satisfied"
>>> group("CCOC(=O)N1CC/C(=C\\C#Cc2cc(OC)ccn2)C(C)(C)C1")
"Not satisfied"

Attention now shifts to the item below.
INPUT: Please tell me: is the molecule `COC(=O)N1CC/C(=C\C#Cc2nccc(C)n2)C1(C)C` at or over 8 in terms of pKi?
OUTPUT: Not satisfied

* * *

# systemName: human mGlu5 receptor (Homo sapiens (Human), UniProt P41594)
# testMethodNotes: Calcium fluorescence measurements, potentiation of mGlu5 activation (positive allosteric modulator activity)
# experimentalSetup: EC20 of the agonist (quisqualate or glutamate), compounds applied 10 minutes before agonist
// boundary case: EC50 equal to 50 nM maps to 0 (no); strictly smaller maps to 1 (yes)

INPUT: Strictly below 50 nM in EC50? `COc1cccc(C(=O)N2CC/C(=C\C#Cc3cccc(Cl)c3)C(C)(C)C2)c1`
OUTPUT: 0 (no)

INPUT: Strictly below 50 nM in EC50? `CC1(C)CN(C(=O)c2cccc(Cl)c2)CC/C1=C\C#Cc1cccc(C#N)c1`
OUTPUT: 0 (no)

INPUT: Strictly below 50 nM in EC50? `Cc1cccc(C(=O)N2CC/C(=C\C#Cc3cccc(Cl)c3)C(C)(C)C2)c1`
OUTPUT: 0 (no)

INPUT: Strictly below 50 nM in EC50? `Cc1cc(C(=O)N2CC/C(=C\C#Cc3cccc(CO)c3)C(C)(C)C2)c(C)o1`
OUTPUT: 1 (yes)

INPUT: Strictly below 50 nM in EC50? `Cc1cccc(C(=O)N2CC/C(=C\C#Cc3cccc(Cl)c3)C(C)(C)C2)n1`
OUTPUT: 0 (no)

INPUT: Strictly below 50 nM in EC50? `CC1(C)CN(C(=O)c2cccc(Cl)c2)CC/C1=C\C#Cc1ccc(F)cc1`
OUTPUT: 1 (yes)

INPUT: Strictly below 50 nM in EC50? `CC1(C)CN(C(=O)c2cccc(Cl)c2)CC/C1=C\C#Cc1cccc(O)c1`
OUTPUT: 0 (no)

* * *

# systemName: human mGlu5 receptor (Homo sapiens (Human))
# testMethodNotes: Fold shift of agonist curve determination
# Format: cell-based
# experimentalSetup: ratio of EC50 agonist (quisqualate or glutamate) curves in presence and in absence of test compound; compound at 1 μM
Quick reference for mGlu5 Fold Shift @1 μM among some compounds
Output: the number by itself.

Example compounds with recorded mGlu5 Fold Shift @1 μM:
>>> reading("CC1(C)CN(C(=O)c2cccc(Cl)c2)CC/C1=C\\C#Cc1cccc(CO)c1")
2.9
>>> reading("Cc1cccc(C(=O)N2CC/C(=C\\C#Cc3cccc(Cl)c3)C(C)(C)C2)n1")
3.5
>>> reading("CC1(C)CN(C(=O)c2cccc(Cl)c2)CC/C1=C\\C#Cc1cccc(O)c1")
3.9

INPUT: Give the measured mGlu5 Fold Shift @1 μM of `CC1(C)CN(C(=O)c2cccc(Cl)c2)CC/C1=C\C#Cc1ccc(F)cc1` .
OUTPUT: 5.5

INPUT: Give the measured mGlu5 Fold Shift @1 μM of `CC1(C)CN(C(=O)c2cccc(Cl)c2)CC/C1=C\c1cc(-c2cccc(Cl)c2)[nH]n1` .
OUTPUT: 7.66

INPUT: Give the measured mGlu5 Fold Shift @1 μM of `CC1(C)CN(C(=O)c2cccc(O)c2)CC/C1=C\C#Cc1cccc(Cl)c1` .
OUTPUT: 3.4

INPUT: Give the measured mGlu5 Fold Shift @1 μM of `COc1cccc(C(=O)N2CC/C(=C\C#Cc3cccc(C#N)c3)C(C)(C)C2)c1` .
OUTPUT: 2.2

INPUT: Give the measured mGlu5 Fold Shift @1 μM of `Cc1cc(C(=O)N2CC/C(=C\C#Cc3cccc(CO)c3)C(C)(C)C2)c(C)o1` .
OUTPUT: 3.79

* * *

# systemName: human mGlu5 receptor (Homo sapiens (Human), UniProt P41594)
# testMethodNotes: Calcium fluorescence measurements, antagonist potency (negative allosteric modulator activity)
# experimentalSetup: EC80 of quisqualate as agonist, compounds applied 10 minutes before agonist
pIC50: −log10 of the molar value.
Would you mind labelling by pIC50? At or over 8 is label 1, under is label 0.

Please review the entries below; each comes with its answer.
>>> group("CCOC(=O)N1CC/C(=C\\C#Cc2cc(OC)ccn2)C(C)(C)C1")
"label 0"
>>> group("CCOC(=O)N1CC/C(=C\\C#Cc2cccc(C(F)(F)F)c2)C(C)(C)C1")
"label 0"
>>> group("CCOC(=O)N1CC/C(=C\\C#Cc2cc(F)cc(C#N)c2)C(C)(C)C1")
"label 0"
>>> group("CCOC(=O)N1CC/C(=C\\C#Cc2cccc(CC#N)c2)C(C)(C)C1")
"label 0"

Attention now shifts to the item below.
INPUT: Please tell me: is the compound `CCOC(=O)N1CC/C(=C\C#Cc2cccc(C)n2)C1(C)C` at or over 8 in terms of pIC50?
OUTPUT: label 1
